The measurements presented in this section are drawn from paper PMC11879086.

- Study System: T1, MORC2 subset N (Homo sapiens, UniProt Q9Y6X9 1-1032, K704D;R707D;K713D;K716D;K721D;K722D)
- T1 sequence: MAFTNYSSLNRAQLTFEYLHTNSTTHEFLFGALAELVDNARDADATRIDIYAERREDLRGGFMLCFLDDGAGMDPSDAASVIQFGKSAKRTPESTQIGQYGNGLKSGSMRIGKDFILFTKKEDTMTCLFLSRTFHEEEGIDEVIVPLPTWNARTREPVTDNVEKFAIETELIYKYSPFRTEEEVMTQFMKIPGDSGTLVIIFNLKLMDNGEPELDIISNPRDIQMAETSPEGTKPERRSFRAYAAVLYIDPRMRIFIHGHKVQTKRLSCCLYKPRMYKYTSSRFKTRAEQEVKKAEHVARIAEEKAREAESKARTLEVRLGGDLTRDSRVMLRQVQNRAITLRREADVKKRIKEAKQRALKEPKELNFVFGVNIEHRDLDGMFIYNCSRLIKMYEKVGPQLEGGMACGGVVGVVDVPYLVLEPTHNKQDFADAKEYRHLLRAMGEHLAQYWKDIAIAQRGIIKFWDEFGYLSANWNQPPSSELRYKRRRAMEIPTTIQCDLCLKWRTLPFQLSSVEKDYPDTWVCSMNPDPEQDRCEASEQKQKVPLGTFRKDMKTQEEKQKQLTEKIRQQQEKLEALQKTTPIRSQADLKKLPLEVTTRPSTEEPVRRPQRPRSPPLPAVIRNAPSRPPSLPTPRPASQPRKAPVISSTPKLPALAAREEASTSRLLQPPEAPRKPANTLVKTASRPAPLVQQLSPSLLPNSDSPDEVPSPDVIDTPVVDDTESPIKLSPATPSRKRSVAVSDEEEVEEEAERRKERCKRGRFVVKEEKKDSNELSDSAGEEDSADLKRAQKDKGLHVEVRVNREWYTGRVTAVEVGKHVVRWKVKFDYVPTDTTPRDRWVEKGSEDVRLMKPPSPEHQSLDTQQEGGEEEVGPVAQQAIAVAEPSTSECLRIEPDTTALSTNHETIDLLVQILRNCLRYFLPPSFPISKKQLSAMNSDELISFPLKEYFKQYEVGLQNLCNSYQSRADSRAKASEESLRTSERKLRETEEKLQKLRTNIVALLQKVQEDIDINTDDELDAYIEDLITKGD
- Test Details: fluorescence anisotropy; apo; FA/EMSA: 50 mM NaCl, 3 mM MgCl2, 20 mM Na-HEPES pH 7.4, 1 mM TCEP, 10% glycerol, 0.025 mM ZnCl2, 50 ug/ml BSA, room temperature; 1 nM nucleic acid (FA) or 20 nM DNA (EMSA)
- Measurement Setup: protein: recombinant; tags: tag removed by TEV; chain copies: 2; label: 5'-6-FAM; blunt
Value Kind: pKd
Lab note: report pKd as minus log10 of the concentration in molar units, number only.

Request: I would be grateful if you could share the reported pKd for Random 35mer dsDNA (dsDNA) DNA 1: ATAGGGTCCATCAGAATTCGGATGAACTCGGTGTG DNA 2: CACACCGAGTTCATCCGAATTCTGATGGACCCTAT .
Result: 7.05
